measurementNotes: NCI Yeast Anticancer Drug Screen. Data for the sgs1 mgt1 strain (AID 161);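 note: 0% = growth of cultures given vehicle only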
assaySetup: S. cerevisiae sgs1 mgt1 strain, at 50.0 µM, hits give high values
Compounds without any hit were thinned out: in the full panel of roughly 79,000, 15% have a hit.
quantityMeasured: growth inhibition (%)
Express the result in % but write the number alone.

See these solved cases before continuing.
molecule	unitsText	quantitativeReadout
COC(=O)NCc1nc2cc3c[nH][nH]c3cc2n1	%	14.9
Nc1nc2c(c(=O)[nH]1)CN(c1ccc(S(N)(=O)=O)cc1)CN2	%	0.5
NC(C(=O)O)C1CCCC1 (configuration not stated)	%	-20.8

Ask: Query: growth inhibition; subject: CCCCCCNC(CC(N)=O)C(=O)O (configuration not stated)
Result: 11.3
